Test system: Mycoplasma gallisepticum (MG) T-7-T, TS-resistant strain isolated from the field
Assay name: In vitro sensitivity test (liquid dilution method)
Type: cell-based
Assay setup: 37°C, 7 days
Counter-ions that a name gives are not always drawn.
Measurement kind: In vitro Sensitivity Test MG T-7-T (µg/mL)

Molecule	Measurement kind	Experimental result
CN[C@H]1CCC[C@H]2CN(c3c(F)cc4c(=O)c(C(=O)O)cn(C5CC5)c4c3F)CC[C@H]21.Cl (relative stereo) [I-7]	In vitro Sensitivity Test MG T-7-T	0.2
NC[C@@]12CCC[C@@H]1CN(c1cc3c(cc1F)c(=O)c(C(=O)O)cn3C1CC1)C2 (relative stereo) [I-8]	In vitro Sensitivity Test MG T-7-T	0.00625
CN(C)[C@@H]1C(O)=C(C(N)=O)C(=O)[C@@]2(O)C(O)=C3C(=O)c4c(O)ccc(Cl)c4[C@@](C)(O)[C@H]3C[C@@H]12 [CTC, chlorotetracycline hydrochloride, reference compound]	In vitro Sensitivity Test MG T-7-T	6.25
CCN1CCN(c2cc3c(cc2F)c(=O)c(C(=O)O)cn3C2CC2)CC1 [ERFX, Enrofuroxasin®, reference compound]	In vitro Sensitivity Test MG T-7-T	0.1
C[C@H]1c2cccc(O)c2C(=O)C2=C(O)[C@]3(O)C(=O)C(C(N)=O)=C(O)[C@@H](N(C)C)[C@@H]3[C@@H](O)[C@@H]21 [DOXY, doxycycline, reference compound]	In vitro Sensitivity Test MG T-7-T	0.2
N[C@H]1CCC[C@H]2CN(c3c(F)cc4c(=O)c(C(=O)O)cn(C5CC5)c4c3F)CC[C@H]21 (relative stereo) [I-6]	In vitro Sensitivity Test MG T-7-T	0.00625

----------
Test system: TS-resistant strain of MG
Assay type: in vivo, chicken
Assay setup: oral 6.25 mg/kg; 10-days chicken, 1.2 x 10³ CFU/fowl

Compound	Tested on	Number of fowl having air sack lesions
CCN1CCN(c2cc3c(cc2F)c(=O)c(C(=O)O)cn3C2CC2)CC1 [ERFX, Enrofuroxasin®, reference compound]	TS-resistant strain of MG	2
NC[C@@]12CCC[C@@H]1CN(c1cc3c(cc1F)c(=O)c(C(=O)O)cn3C1CC1)C2 (relative stereo)	TS-resistant strain of MG	0
N[C@H]1CCC[C@H]2CN(c3c(F)cc4c(=O)c(C(=O)O)cn(C5CC5)c4c3F)CC[C@H]21 (relative stereo)	TS-resistant strain of MG	5
CNC[C@@]12CCC[C@@H]1CN(c1cc3c(cc1F)c(=O)c(C(=O)O)cn3C1CC1)C2 (relative stereo)	TS-resistant strain of MG	4

----------
System: TS-resistant strain of MG
Type: in vivo, chicken
Assay setup: oral 6.25 mg/kg; 9-days chicken, 3.5 x 10³ CFU/fowl
Measurement kind: Number of infected fowl/Number of fowl tested

Compound	Tested on	Experimental result
CCNCC12CCCC1CN(c1c(F)cc3c(=O)c(C(=O)O)cn(CC)c3c1F)C2.Cl (stereo not shown)	TS-resistant strain of MG	0/5
Cl.Nc1c(F)c(N2C[C@@H]3CC[C@@H](N)[C@@H]3C2)c(F)c2c1c(=O)c(C(=O)O)cn2C1CC1 (relative stereo)	TS-resistant strain of MG	2/5
CCn1cc(C(=O)O)c(=O)c2cc(F)c(N3C[C@H]4CCC[C@@]4(CNC)C3)c(F)c21.Cl (relative stereo)	TS-resistant strain of MG	1/5
CCN1CCN(c2cc3c(cc2F)c(=O)c(C(=O)O)cn3C2CC2)CC1 [ERFX, Enrofuroxasin®, reference compound]	TS-resistant strain of MG	0/5

----------
// reported In vitro Sensitivity Test MG T-7-T for each item listed
Tested on: Mycoplasma gallisepticum (MG) T-7-T, TS-resistant strain isolated from the field
Assay name: In vitro sensitivity test (liquid dilution method)
Type: cell-based
Assay setup: 37°C, 7 days

Compound	In vitro Sensitivity Test MG T-7-T
CNC[C@@]12CCC[C@@H]1CN(c1cc3c(cc1F)c(=O)c(C(=O)O)cn3C1CC1)C2 (relative stereo)	0.025 µg/mL
Cl.Nc1c(F)c(N2C[C@@H]3CC[C@@H](N)[C@@H]3C2)c(F)c2c1c(=O)c(C(=O)O)cn2C1CC1 (relative stereo)	0.00313 µg/mL
CN[C@@H]1CCC[C@H]2[C@@H]1CCN2c1c(F)cc2c(=O)c(C(=O)O)cn(C3CC3)c2c1F (relative stereo)	0.05 µg/mL

----------
Assay name: Acute toxicity (LD50)
Assay setup: in vivo, po; Mouse (B6C3F₁, male), p.o.; read-out: LD₅₀

Compound	Measure unit	LD50
CNCC12CCCC1CN(c1c(F)cc3c(=O)c(C(=O)O)cn(C4CC4)c3c1F)C2.Cl (stereo not shown)	mg/kg	2000

----------
Tested on: Hemophilus pleuropneumonia (H.pp) M-1
Assay name: In vitro sensitivity test (agar dilution method)
Assay type: cell-based
Assay setup: 37°C, 20 hours, 10 % CO₂
Measurement kind: In vitro Sensitivity Test H.pp M-1 (µg/mL)

Molecule	Experimental result
O=C(O)c1cn(C2CC2)c2c(F)c(N3CC4CCCC(=O)C4C3)c(F)cc2c1=O (stereo not shown)	0.2
C[C@H]1c2cccc(O)c2C(=O)C2=C(O)[C@]3(O)C(=O)C(C(N)=O)=C(O)[C@@H](N(C)C)[C@@H]3[C@@H](O)[C@@H]21 [DOXY, doxycycline, reference compound]	0.39
N[C@H]1CCC[C@H]2CN(c3c(F)cc4c(=O)c(C(=O)O)cn(C5CC5)c4c3F)CC[C@H]21 (relative stereo)	0.2
CCn1cc(C(=O)O)c(=O)c2cc(F)c(N3C[C@H]4CCC[C@@]4(CNC)C3)c(F)c21.Cl (relative stereo)	0.78
NC[C@@]12CCC[C@@H]1CN(c1cc3c(cc1F)c(=O)c(C(=O)O)cn3C1CC1)C2 (relative stereo)	0.05
CCN1CCN(c2cc3c(cc2F)c(=O)c(C(=O)O)cn3C2CC2)CC1 [ERFX, Enrofuroxasin®, reference compound]	0.2
CN[C@H]1CCC[C@H]2CN(c3c(F)cc4c(=O)c(C(=O)O)cn(C5CC5)c4c3F)CC[C@H]21.Cl (relative stereo)	0.78
CNC[C@@]12CCC[C@@H]1CN(c1cc3c(cc1F)c(=O)c(C(=O)O)cn3C1CC1)C2 (relative stereo)	0.39
Cl.N[C@H]1CC[C@H]2CN(c3c(F)cc4c(=O)c(C(=O)O)cn(C5CC5)c4c3F)C[C@H]21 (relative stereo)	0.2
CCNCC12CCCC1CN(c1c(F)cc3c(=O)c(C(=O)O)cn(CC)c3c1F)C2.Cl (stereo not shown)	0.78
CNC[C@@]12CCC[C@@H]1CN(c1c(Cl)cc3c(=O)c(C(=O)O)cn(C4CC4)c3c1Cl)C2.Cl (relative stereo)	0.78
CN[C@@H]1CCC[C@H]2[C@@H]1CCN2c1c(F)cc2c(=O)c(C(=O)O)cn(C3CC3)c2c1F (relative stereo)	0.2
Cl.Nc1c(F)c(N2C[C@@H]3CC[C@@H](N)[C@@H]3C2)c(F)c2c1c(=O)c(C(=O)O)cn2C1CC1 (relative stereo)	0.2

----------
Test system: Hemophilus paragallinarum (H.pg) S-1
Assay name: In vitro sensitivity test (agar dilution method)
Type: cell-based
Assay setup: agar dilution, 37°C, 20 hours, 10 % CO₂
// reported In vitro Sensitivity Test H.pg S-1 for each item listed

Molecule	Prefix operator	In vitro Sensitivity Test H.pg S-1, µg/mL
CNC[C@@]12CCC[C@@H]1CN(c1c(Cl)cc3c(=O)c(C(=O)O)cn(C4CC4)c3c1Cl)C2.Cl (relative stereo)	=	0.39
CN[C@H]1CCC[C@H]2CN(c3c(F)cc4c(=O)c(C(=O)O)cn(C5CC5)c4c3F)CC[C@H]21.Cl (relative stereo)	>	3.13
CCN1CCN(c2cc3c(cc2F)c(=O)c(C(=O)O)cn3C2CC2)CC1 [ERFX, Enrofuroxasin®, reference compound]	=	0.2
CNC[C@@]12CCC[C@@H]1CN(c1cc3c(cc1F)c(=O)c(C(=O)O)cn3C1CC1)C2 (relative stereo)	=	0.78
Cl.Nc1c(F)c(N2C[C@@H]3CC[C@@H](N)[C@@H]3C2)c(F)c2c1c(=O)c(C(=O)O)cn2C1CC1 (relative stereo)	=	0.2
NC[C@@]12CCC[C@@H]1CN(c1cc3c(cc1F)c(=O)c(C(=O)O)cn3C1CC1)C2 (relative stereo)	=	0.2
N[C@H]1CCC[C@H]2CN(c3c(F)cc4c(=O)c(C(=O)O)cn(C5CC5)c4c3F)CC[C@H]21 (relative stereo)	>	1.56

----------
// reported In vitro Sensitivity Test S.typhi 13311 for each item listed
System: Salmonella typhimurium (S.typhi) 13311
Assay name: In vitro sensitivity test (agar dilution method)
Assay type: cell-based
Assay setup: 37°C, 20 to 24 hours
Measurement kind: In vitro Sensitivity Test S.typhi 13311 (µg/mL)

Molecule	Experimental result
CN[C@H]1CCC[C@H]2CN(c3c(F)cc4c(=O)c(C(=O)O)cn(C5CC5)c4c3F)CC[C@H]21.Cl (relative stereo) [I-7]	0.2
Cl.Nc1c(F)c(N2C[C@@H]3CC[C@@H](N)[C@@H]3C2)c(F)c2c1c(=O)c(C(=O)O)cn2C1CC1 (relative stereo) [I-16]	0.05
CNC[C@@]12CCC[C@@H]1CN(c1c(Cl)cc3c(=O)c(C(=O)O)cn(C4CC4)c3c1Cl)C2.Cl (relative stereo) [I-10]	0.78

meta.source: patent EP0429304A2
